system: Yersinia pseudotuberculosis; assay: Effect on T3S in Yersinia pseudotuberculosis 3 pIB29 assessed as inhibition of light emission at 50 uM by luciferase reporter gene assay
Output True for inhibition not less than 90%; output False otherwise.

[
  {
    "Mol": "Cc1cc(C)cc(NC(=O)c2c(O)c(Cl)cc(Cl)c2Cl)c1",
    "Label value": "False"
  },
  {
    "Mol": "O=C(Nc1ccc(Br)cc1)c1cc(I)ccc1O",
    "Label value": "False"
  },
  {
    "Mol": "O=C(Nc1ccc(SC(F)(F)F)cc1)c1cc(I)cc(I)c1O",
    "Label value": "True"
  },
  {
    "Mol": "O=C(Nc1ccccc1)c1cc(I)cc(I)c1O",
    "Label value": "False"
  },
  {
    "Mol": "COc1cc(Cl)c(C)cc1NC(=O)c1cccc(C(C)C)c1OC(C)=O",
    "Label value": "False"
  },
  {
    "Mol": "O=C(Nc1ccc(Br)cc1)c1cc(I)cc(I)c1O",
    "Label value": "True"
  }
]

// data source = ChEMBL document CHEMBL1138297
